- ASSAY COMMENT: HepG2 liver cancer cell viability effects, profiling panel, resazurin fluorescence, 24 h, PK04 Diversity Set (AID 1172); note: test concentration not given here
- EXPERIMENTAL SETUP: higher = more signal
READOUT TYPE: z-score

[Q] // returns reported z-score for input COCCOC(=O)N1C(=O)[C@@]2(c3cc(C#CC4=CCCCC4)ccc31)[C@H](C(=O)NC[C@H](O)c1ccccc1)[C@H]1C(=O)O[C@H](c3ccccc3)[C@H](c3ccccc3)N1[C@@H]2c1ccc(OCCO)cc1
[A] 0.604

[Q] Form field: reported z-score of CO[C@H]1COC(=O)[C@@H](C)NC(=O)CC=C[C@@H](C)[C@H](OC)COC(=O)CC=C[C@@H]1C
[A] 1.16

[Q] // z-score lookup, key: CO[C@@H]1COC(=O)[C@@H]2CCCN2C(=O)CC=C[C@@H](C)[C@H](OC)COC(=O)[C@@H]2CCCN2C(=O)CC=C[C@H]1C
[A] 0.929

[Q] Give its z-score value. Item: Cc1ccccc1C(O)C1C=CC2C(=O)N(c3ccccc3)C(=O)C2N1Nc1ccc(C#N)cc1 (configuration not stated)
[A] -0.709

[Q] // returns reported z-score for input COC(=O)[C@@]1(Cc2ccccc2)[C@H]2c3cc(C(=O)N4CCCC4)n(CCN4CNCC4=O)c3C[C@H]2CN1C(=O)c1ccccc1
[A] 0.276

[Q] Entry Cc1ccc(S[C@]2(C(=O)NCCCN(C)C)CC(=O)N(Cc3ccccc3)[C@@H]2c2ccc(CO)cc2I)cc1 : reported z-score = ?
[A] -0.896

[Q] Entry under review: O=C(CS)NCCCCCNC(=O)[C@H]1C[C@H]2C(=O)N[C@@H](Cc3ccccc3)C(=O)N2[C@H]1c1ccc(O)cc1 . Reported z-score?
[A] 0.0833
